- tested-target: hlGPa (Homo sapiens, UniProt P06737)
- Construct: gene PYGL; recombinant human liver GPb (produced as described previously) converted to the phosphorylated a form with truncated gamma subunit of rabbit phosphorylase kinase
- Sequence (P06737 2-847): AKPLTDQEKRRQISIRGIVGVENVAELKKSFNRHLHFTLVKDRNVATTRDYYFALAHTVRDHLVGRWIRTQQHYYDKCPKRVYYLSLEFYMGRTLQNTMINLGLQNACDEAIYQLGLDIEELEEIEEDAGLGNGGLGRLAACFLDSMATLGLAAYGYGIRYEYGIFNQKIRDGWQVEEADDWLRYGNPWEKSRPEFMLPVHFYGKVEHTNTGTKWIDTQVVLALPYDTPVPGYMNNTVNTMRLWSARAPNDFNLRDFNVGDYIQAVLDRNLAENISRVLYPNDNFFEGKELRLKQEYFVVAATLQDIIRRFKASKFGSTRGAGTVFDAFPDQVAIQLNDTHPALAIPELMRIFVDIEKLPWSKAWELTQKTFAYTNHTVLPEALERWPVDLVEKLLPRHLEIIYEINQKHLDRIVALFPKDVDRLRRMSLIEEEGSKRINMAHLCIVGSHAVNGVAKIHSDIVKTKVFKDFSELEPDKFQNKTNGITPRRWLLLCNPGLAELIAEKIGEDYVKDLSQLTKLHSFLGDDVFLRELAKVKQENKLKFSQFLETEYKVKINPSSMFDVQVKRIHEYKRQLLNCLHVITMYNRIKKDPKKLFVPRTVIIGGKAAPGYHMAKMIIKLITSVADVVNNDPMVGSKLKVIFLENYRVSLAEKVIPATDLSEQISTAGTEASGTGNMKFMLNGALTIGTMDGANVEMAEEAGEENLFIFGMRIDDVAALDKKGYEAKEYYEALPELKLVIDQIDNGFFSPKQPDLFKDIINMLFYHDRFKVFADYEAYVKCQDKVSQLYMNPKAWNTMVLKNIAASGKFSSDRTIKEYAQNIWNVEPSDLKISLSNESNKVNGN
- assay-method-text: inorganic phosphate release, glycogen synthesis direction
- Assay type: biochemical
quantity-measured: Ki (µM)

a: O=C(N[C@@H]1O[C@H](CO)[C@@H](O)[C@H](O)[C@H]1O)c1ccc(-c2ccccc2)cc1 [compound 4]
b: O=C(N[C@@H]1O[C@H](CO)[C@@H](O)[C@H](O)[C@H]1O)c1cccc(-c2ccc(F)cc2)c1 [compound 3]
Task item: Problem: Given the entries a and b , determine which has the lower reported Ki. Answer = label.
Reply: a
(a: 19.4 µM, b: 45.6 µM)
